Target: SARS-CoV-2 full length spike protein, V367F mutant (SARS-CoV-2, UniProt P0DTC2 14-1273)
Assay readout: median fluorescence intensity, fold over isotype control (fold over isotype)
Supply the numeric figure in fold over isotype, leaving out any unit text.

// query What median fluorescence intensity, fold over isotype control value was documented for this binder, antibody 287 (antibody, V domains shown) VH: QLQLQESGPGLVKPSETLSLTCTVSGGSISSSSYYWGWIRQPPGKGLEWIGSIFYSGSTYYNPSLKSRVTIFVDTSKNQFSLKLSSVTAADTAVYYCARFDYQVVDLTGFDYWGQGTLVTVSS VL: DIQMTQSPSSLSASVGDRVTITCRASQGIRNDLGWYQQKPGKAPKRLIYAASSLQSGVPSRFSGSGSGTEFTLTIRSLQPEDFATYYCLQYNSYPLTFGGGTKVEIK ?
// result 60.9

All values here come from patent US20210292393A1.
